experiment: Antioxidant activity assessed as ABTS radical scavenging activity after 30 mins
Type: functional
measuredParameter: IC50 (µM)
Hi! Could you send only the number? It should be in µM, unit omitted.

Lookup: Quick one: IC50 of "COc1cc([C@@H](O)[C@H](CO)Oc2ccc([C@@H](OC)[C@H](CO)c3ccc(O)c(OC)c3)cc2OC)ccc1O" ?
Found: 5.9

Lookup: And "COc1cc([C@@H](CO)[C@H](OC)c2ccc(O[C@H](CO)[C@@H](O)c3ccc(O)c(OC)c3)c(OC)c2)ccc1O" ?
Found: 7.8

Lookup: Now give it for "COc1cc([C@@H](O)[C@@H](CO)Oc2ccc([C@@H](OC)[C@H](O)CO)cc2OC)ccc1O" too.
Found: 12.9

Lookup: Now the compound Cc1c(C)c2c(c(C)c1O)CCC(C)(C(=O)O)O2 (stereo not drawn) [TROLOX]
Found: 18.2

Lookup: Can you handle "COc1cc([C@H](O)[C@@H](CO)Oc2ccc([C@@H](O)[C@H](O)CO)cc2OC)ccc1O" next?
Found: 9.5

Lookup: And the next one, "CCO[C@H](c1ccc(O[C@@H](CO)[C@@H](O)c2ccc(O)c(OC)c2)c(OC)c1)[C@@H](CO)c1ccc(O)c(OC)c1" ?
Found: 7.1

Lookup: Now give it for "CCO[C@H](c1ccc(O[C@@H](CO)[C@@H](O)c2ccc(O)c(OC)c2)c(OC)c1)[C@H](CO)c1ccc(O)c(OC)c1" too.
Found: 7.9

Lookup: And what about the compound "COc1cc([C@H](O)[C@@H](CO)Oc2ccc([C@@H](O)[C@@H](CO)c3ccc(O)c(OC)c3)cc2OC)ccc1O" ?
Found: 4.4

###

experiment: Antioxidant activity assessed as ABTS radical scavenging activity after 30 mins
Assay type: functional
measuredParameter: IC50 (µM)
Expressed in µM, but write only the number.

Lookup: Dear colleague, I am looking for the recorded IC50 of the following compound: "COc1cc([C@@H](O)[C@H](CO)Oc2c(OC)cc([C@@H](O)[C@H](O)CO)cc2OC)ccc1O"
Found: 10.7

Lookup: Now this one: "COc1cc([C@@H](O)[C@@H](CO)Oc2c(OC)cc([C@@H](O)[C@H](O)CO)cc2OC)ccc1O"
Found: 11.8

Lookup: Param item: "CCO[C@H](c1ccc(O[C@@H](CO)[C@@H](OC)c2ccc(O)c(OC)c2)c(OC)c1)[C@H](CO)c1ccc(O)c(OC)c1"
Found: 6.3

Lookup: Okay, and "COc1cc([C@@H](O)[C@@H](CO)Oc2ccc([C@@H](O)[C@H](O)CO)cc2OC)ccc1O" ?
Found: 10.7

Lookup: Queued: "COc1cc([C@H](OC)[C@@H](CO)Oc2ccc([C@@H](O)[C@H](O)CO)cc2OC)ccc1O"
Found: 10.8

###

experiment: Antiinflammatory activity in mouse RAW264.7 cells assessed as inhibition of LPS-induced nitric oxide production after 24 hrs by Griess assay
Assay type: functional, cell-based
assayContext: RAW264.7, 24 h
measuredParameter: IC50 (µM)
// return numeric value only (unit: µM, not printed)

Lookup: If you can, please state the reported IC50 value of "CCO[C@H](c1ccc(O[C@@H](CO)[C@@H](O)c2ccc(O)c(OC)c2)c(OC)c1)[C@H](CO)c1ccc(O)c(OC)c1" .
Found: 76.3

Lookup: Now consider "COc1cc([C@H](O)[C@@H](CO)Oc2ccc([C@@H](O)[C@@H](CO)c3ccc(O)c(OC)c3)cc2OC)ccc1O" .
Found: 50.5

Lookup: Try the molecule CN(C)c1ccc(O)c2c1C[C@H]1C[C@H]3[C@H](N(C)C)C(O)=C(C(N)=O)C(=O)[C@@]3(O)C(O)=C1C2=O [MINOCYCLINE]
Found: 55.1

Lookup: Next entry: "COc1cc([C@@H](O)[C@H](CO)Oc2ccc([C@@H](OC)[C@H](CO)c3ccc(O)c(OC)c3)cc2OC)ccc1O"
Found: 97.3

Lookup: What do we get for "CCO[C@H](c1ccc(O[C@@H](CO)[C@@H](O)c2ccc(O)c(OC)c2)c(OC)c1)[C@@H](CO)c1ccc(O)c(OC)c1" ?
Found: 66.4

Lookup: Okay, and "COc1cc([C@@H](CO)[C@H](OC)c2ccc(O[C@H](CO)[C@@H](O)c3ccc(O)c(OC)c3)c(OC)c2)ccc1O" ?
Found: 62.9

Lookup: And then "CCO[C@H](c1ccc(O[C@@H](CO)[C@@H](OC)c2ccc(O)c(OC)c2)c(OC)c1)[C@H](CO)c1ccc(O)c(OC)c1" , what is it?
Found: 80.5

###

experiment: Antiinflammatory activity in mouse RAW264.7 cells assessed as inhibition of LPS-induced TNFalpha production at 10 uM after 24 hrs by ELISA relative to control
Format: functional
assayContext: RAW264.7, 24 h
measuredParameter: inhibition at 10 µM (%)
Write the answer as a number in %, unit excluded.

Lookup: # input compound: "COc1cc([C@@H](O)[C@@H](CO)Oc2ccc([C@@H](O)[C@H](O)CO)cc2OC)ccc1O" ; wanted: its inhibition at 10 µM
Found: 21.2

Lookup: Query "COc1cc([C@@H](O)[C@@H](CO)Oc2c(OC)cc([C@@H](O)[C@H](O)CO)cc2OC)ccc1O" next
Found: 14.1

Lookup: And the next one, "COc1cc([C@@H](O)[C@H](CO)Oc2ccc([C@@H](OC)[C@H](CO)c3ccc(O)c(OC)c3)cc2OC)ccc1O" ?
Found: 3.2

Lookup: What about this compound? COc1cc(C2Oc3cc([C@H]4Oc5cc(O)cc(O)c5C(=O)[C@@H]4O)ccc3OC2CO)ccc1O (stereo partly drawn)
Found: 27

Lookup: Queued: "COc1cc([C@H](OC)[C@@H](CO)Oc2ccc([C@@H](O)[C@H](O)CO)cc2OC)ccc1O"
Found: 18.9

Lookup: Input "COc1cc([C@H](O)[C@@H](CO)Oc2ccc([C@@H](O)[C@@H](CO)c3ccc(O)c(OC)c3)cc2OC)ccc1O"
Found: 4.1

Lookup: Likewise for "COc1cc([C@@H](O)[C@@H](CO)Oc2ccc([C@@H](OC)[C@H](O)CO)cc2OC)ccc1O" ?
Found: 24.5

Lookup: Query "CCO[C@H](c1ccc(O[C@@H](CO)[C@@H](O)c2ccc(O)c(OC)c2)c(OC)c1)[C@@H](CO)c1ccc(O)c(OC)c1" next
Found: 3.1

Lookup: Query "COc1cc([C@@H](O)[C@H](CO)Oc2c(OC)cc([C@@H](O)[C@H](O)CO)cc2OC)ccc1O" next
Found: 13.7

Lookup: Next up: "CCO[C@H](c1ccc(O[C@@H](CO)[C@@H](O)c2ccc(O)c(OC)c2)c(OC)c1)[C@H](CO)c1ccc(O)c(OC)c1"
Found: -1.9

Lookup: Likewise for "COc1cc([C@@H](CO)[C@H](OC)c2ccc(O[C@H](CO)[C@@H](O)c3ccc(O)c(OC)c3)c(OC)c2)ccc1O" ?
Found: 2.9

Lookup: Again, but for "COc1cc([C@H](O)[C@@H](CO)Oc2ccc([C@@H](O)[C@H](O)CO)cc2OC)ccc1O"
Found: 26.2

Lookup: One more compound: "CCO[C@H](c1ccc(O[C@@H](CO)[C@@H](OC)c2ccc(O)c(OC)c2)c(OC)c1)[C@H](CO)c1ccc(O)c(OC)c1"
Found: 2.1

###

experiment: Antiinflammatory activity in mouse RAW264.7 cells assessed as inhibition of LPS-induced TNFalpha production at 100 uM after 24 hrs by ELISA relative to control
Format: functional
assayContext: RAW264.7, 24 h
measuredParameter: inhibition at 100 µM (%)
Field format: number, assumed %, no unit text.

Lookup: So what does the record say about inhibition at 100 µM for "COc1cc([C@H](O)[C@@H](CO)Oc2ccc([C@@H](O)[C@H](O)CO)cc2OC)ccc1O" ?
Found: 55.6

Lookup: Same question, "CCO[C@H](c1ccc(O[C@@H](CO)[C@@H](O)c2ccc(O)c(OC)c2)c(OC)c1)[C@@H](CO)c1ccc(O)c(OC)c1" this time
Found: 29.2

Lookup: Now the compound "CCO[C@H](c1ccc(O[C@@H](CO)[C@@H](O)c2ccc(O)c(OC)c2)c(OC)c1)[C@H](CO)c1ccc(O)c(OC)c1"
Found: 27.7

Lookup: Could you do the same for "CCO[C@H](c1ccc(O[C@@H](CO)[C@@H](OC)c2ccc(O)c(OC)c2)c(OC)c1)[C@H](CO)c1ccc(O)c(OC)c1" , please?
Found: 22.5

###

experiment: Antiinflammatory activity in mouse RAW264.7 cells assessed as inhibition of LPS-induced nitric oxide production at 50 uM after 24 hrs by Griess assay relative to control
Assay type: functional
assayContext: RAW264.7, 24 h
Assignment: determine reported inhibition at 50 µM for the given compounds.
Report the figure along with its unit, number first.

Lookup: I am curious: what inhibition at 50 µM value has been reported for "COc1cc([C@@H](O)[C@@H](CO)Oc2ccc([C@@H](O)[C@H](O)CO)cc2OC)ccc1O" ?
Found: 2.6%

Lookup: Query "CCO[C@H](c1ccc(O[C@@H](CO)[C@@H](OC)c2ccc(O)c(OC)c2)c(OC)c1)[C@H](CO)c1ccc(O)c(OC)c1" next
Found: 37.2%

Lookup: And the next one, "COc1cc([C@H](OC)[C@@H](CO)Oc2ccc([C@@H](O)[C@H](O)CO)cc2OC)ccc1O" ?
Found: 3.2%

Lookup: And the next one, "COc1cc([C@@H](O)[C@@H](CO)Oc2ccc([C@@H](OC)[C@H](O)CO)cc2OC)ccc1O" ?
Found: 3.8%

Lookup: Now consider "CCO[C@H](c1ccc(O[C@@H](CO)[C@@H](O)c2ccc(O)c(OC)c2)c(OC)c1)[C@@H](CO)c1ccc(O)c(OC)c1" .
Found: 40.2%

Lookup: Note, next up: "COc1cc([C@H](O)[C@@H](CO)Oc2ccc([C@@H](O)[C@@H](CO)c3ccc(O)c(OC)c3)cc2OC)ccc1O"
Found: 49.2%

Lookup: Follow-up item: "COc1cc([C@@H](CO)[C@H](OC)c2ccc(O[C@H](CO)[C@@H](O)c3ccc(O)c(OC)c3)c(OC)c2)ccc1O"
Found: 42.1%

Lookup: Okay, and "COc1cc([C@@H](O)[C@H](CO)Oc2c(OC)cc([C@@H](O)[C@H](O)CO)cc2OC)ccc1O" ?
Found: 2.7%

Lookup: Please give the result for "COc1cc([C@H](O)[C@@H](CO)Oc2ccc([C@@H](O)[C@H](O)CO)cc2OC)ccc1O" too.
Found: 3.1%

Lookup: Also "COc1cc([C@@H](O)[C@@H](CO)Oc2c(OC)cc([C@@H](O)[C@H](O)CO)cc2OC)ccc1O" ?
Found: 1.1%

Lookup: How about this compound: "CN(C)c1ccc(O)c2c1C[C@H]1C[C@H]3[C@H](N(C)C)C(O)=C(C(N)=O)C(=O)[C@@]3(O)C(O)=C1C2=O"
Found: 51.8%

Lookup: Request: "CCO[C@H](c1ccc(O[C@@H](CO)[C@@H](O)c2ccc(O)c(OC)c2)c(OC)c1)[C@H](CO)c1ccc(O)c(OC)c1"
Found: 44.1%

Lookup: Input "COc1cc([C@@H](O)[C@H](CO)Oc2ccc([C@@H](OC)[C@H](CO)c3ccc(O)c(OC)c3)cc2OC)ccc1O"
Found: 34.2%
